measurement-notes: Intrinsic clearance in human liver microsome
Assay type: ADME, microsomes
conditions: liver microsomes, read-out: CLH

{"mol": "CC(=O)N[C@@H]1CCC[C@H](C(=O)Nc2cc(-c3cnn4c3COCC4)c(Cl)cn2)C1", "sign": "<", "microsomal CLint / µL/min/mg": 3}
{"mol": "CC(=O)N[C@@H]1CCC[C@H](C(=O)Nc2cc(-c3cnn4c3CCCC4)c(F)cn2)C1", "sign": "<", "microsomal CLint / µL/min/mg": 3}
{"mol": "CC(=O)N[C@@H]1CCC[C@H](C(=O)Nc2cc(-c3cnn4c3CCCC4)ccn2)C1", "sign": "<", "microsomal CLint / µL/min/mg": 3}
{"mol": "CC(=O)N[C@@H]1CCC[C@H](C(=O)Nc2cc(-c3cnn4c3CC(C)(C)CC4)c(F)cn2)C1", "sign": "=", "microsomal CLint / µL/min/mg": 178}
{"mol": "CC(=O)N[C@@H]1CCC[C@H](C(=O)Nc2cc(-c3cnn4c3CC(C)(C)C4)c(C#N)cn2)C1", "sign": "=", "microsomal CLint / µL/min/mg": 26}
{"mol": "CC(=O)N[C@@H]1CCC[C@H](C(=O)Nc2cc(-c3cnn4c3CC(C)(C)C4)ccn2)C1", "sign": "<", "microsomal CLint / µL/min/mg": 3}
{"mol": "CC(=O)N[C@@H]1CCC[C@H](C(=O)Nc2cc(-c3cnn4c3CC(C)(C)C4)c(F)cn2)C1", "sign": "=", "microsomal CLint / µL/min/mg": 19}
{"mol": "CC1(C)Cc2c(-c3cc(NC(=O)[C@H]4C[C@@H](O)C4)ncc3Cl)cnn2C1", "sign": "=", "microsomal CLint / µL/min/mg": 25}
{"mol": "CC(=O)N[C@@H]1CCC[C@H](C(=O)Nc2cc(-c3cnn4c3OCCC4)c(Cl)cn2)C1", "sign": "<", "microsomal CLint / µL/min/mg": 3}
{"mol": "CC(=O)N[C@@H]1CCC[C@H](C(=O)Nc2cc(-c3cnc4n3CCC4)c(Cl)cn2)C1", "sign": "=", "microsomal CLint / µL/min/mg": 9.7}
{"mol": "CC(=O)N[C@@H]1CCC[C@H](C(=O)Nc2cc(-c3cnc4n3CCCC4)c(Cl)cn2)C1", "sign": "=", "microsomal CLint / µL/min/mg": 16}
